Biological target: HLA-A02.01 (human)
Assay: competition vs radiolabeled reference peptide on purified MHC I, gel filtration
pIC50: −log10 of the molar value.
The entries below come with measured pIC50 values attached.
observation.type: pIC50

INSERT INTO measurements (binder, numeric_readout) VALUES
  ('PLCDLLLEML (also called ESR1, Y537C)', 5.70),
  ('VLTVTSTDV (also called FGFR3: TACC3)', 6.53),
  ('VLERCPHRPI (also called FGFR3, S249C)', 4.81),
  ('PLYGLLLEM (also called ESR1, D538G)', 6.19),
  ('PLNDLLLEML (also called ESR1, Y537N)', 4.92),
  ('PLSDLLLEM (also called ESR1, Y537S)', 6.39),
  ('VLQRFRFTHV (also called β2M, . . ; SQIS)', 6.97),
  ('ILMELMAGG (also called ALK, L1196M)', 6.65),
  ('FILMELMAGG (also called ALK, L1196M)', 5.80),
  ('LATEKSRWSG (also called BRAF, V600E)', 4.63),
  ('KVLQMDFLV (also called APC, VHPA)', 7.96),
  ('NVVPLNDLL (also called ESR1, Y537N)', 5.54),
  ('FFFSVIFST (also called CNOT1(+1))', 5.34),
  ('IIIEFMTYG (also called ABL1, T315I)', 6.11),
  ('MSVCFFFFSV (also called CNOT1(+1))', 5.77),
  ('VQWRSLGSL (also called C15ORF40(+1))', 5.32);

Data provenance: patent US20220282217A1
